This collection of values is drawn from PubChem BioAssay AID1159580.

assay: chemical genetic growth profiling, strain panel (AID 1159580);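 also: tested at 20 µM; growth read once vehicle control cultures reached saturation at 30 °C; 1 = growth at the plate median or of vehicle wells; lower values mean less growth of the strain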; settings: S. cerevisiae deletion strains, growth OD, locus YDR388W, hits give low values
In all, about 5,500 compounds went through this assay and about 2,000 (36%) were called active. Roughly 18% stayed inconclusive and do not appear here. Some of the results follow.
Measured normalized growth, listed per entry.

molecule: COc1c(O)cc2c(-c3ccccc3)cc(=O)oc2c1OC
normalized growth: 0.984
--
molecule: COc1ccc2cc3[n+](cc2c1OC)CCc1cc2c(cc1-3)OCO2
normalized growth: 0.365
--
molecule: CN1CCc2c(c3ccccc3n2Cc2ccccc2)C1
normalized growth: 0.981
--
molecule: NC(=O)CC[C@@H](N)C(=O)O
normalized growth: 0.993
--
molecule: COc1cc([C@@H]2c3cc4c(cc3[C@H](OC(C)=O)[C@H]3COC(=O)[C@H]23)OCO4)cc(OC)c1OC
normalized growth: 0.98
--
molecule: CN1CCOC(c2ccccc2)c2ccccc2C1 (stereo not drawn)
normalized growth: 1.02
--
molecule: CC(=O)Nc1ccc(OC(=O)c2ccccc2O)cc1
normalized growth: 0.944
--
molecule: C[N+]1(CCCCC[N+]2(C)CCCC2)CCCC1
normalized growth: 1.01
--
molecule: COc1cc2c3cc1Oc1cc(ccc1O)C[C@@H]1c4c(cc(OC)c(O)c4Oc4ccc(cc4)C[C@@H]3N(C)CC2)CC[N+]1(C)C
normalized growth: 1
--
molecule: O=c1oc2ccccc2c(O)c1Cc1c(O)c2ccccc2oc1=O
normalized growth: 0.959
--
molecule: CC1=CCc2c(cc3oc(C)cc(=O)c3c2O)OC1
normalized growth: 0.957
--
molecule: Nc1ccc(C(=O)Oc2ccccc2)c(O)c1
normalized growth: 0.884
--
molecule: COc1c2c(cc3c1OCO3)CC[N+](C)=C2
normalized growth: 0.994
--
molecule: Cc1cc(=O)c2c(o1)-c1c(cc(O)c(O)c1C(=O)O)OC2
normalized growth: 1.01
--
molecule: CC(=O)Nc1ccc(O)cc1
normalized growth: 0.988
--
molecule: O=c1c2ccccc2oc2ccc(O)cc12
normalized growth: 0.937
--
molecule: COc1ccc2c(=O)cc(-c3ccccc3OC)oc2c1
normalized growth: 0.934
--
molecule: Nc1nc(N)c2nc(-c3ccccc3)c(N)nc2n1
normalized growth: 1.01
